This collection of values is drawn from patent US20250313563A1.

Recorded IC50 for the following compounds
molecular target: GSK3b (GST-full length GSK3b) (Homo sapiens (Human)); assay: GSK3b TR-FRET kinase assay; type: biochemical; conditions: 1 nM GSK3b, 2 μM ATP, 30 minute preincubation, Table 16; read-out: GSK3-B TR-FRET BIOCHEMICAL (TR-FRET); IC50
Sequence (P49841 whole entry): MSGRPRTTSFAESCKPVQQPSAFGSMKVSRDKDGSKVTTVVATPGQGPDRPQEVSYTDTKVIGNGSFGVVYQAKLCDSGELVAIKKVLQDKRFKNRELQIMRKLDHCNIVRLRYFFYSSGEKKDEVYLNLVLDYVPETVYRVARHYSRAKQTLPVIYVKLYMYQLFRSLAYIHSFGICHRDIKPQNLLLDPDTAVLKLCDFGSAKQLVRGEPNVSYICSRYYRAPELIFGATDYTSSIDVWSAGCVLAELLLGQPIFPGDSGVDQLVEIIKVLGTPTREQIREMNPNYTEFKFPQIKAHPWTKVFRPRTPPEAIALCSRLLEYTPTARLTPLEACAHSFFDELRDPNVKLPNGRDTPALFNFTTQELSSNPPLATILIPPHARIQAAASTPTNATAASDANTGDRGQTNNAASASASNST

Example entries and their recorded answers appear below.
CCC1(c2cccc(-c3ccnc(OC(C)C)c3)c2)C2=C(CC(C)(C)CC2=O)Nc2n[nH]cc21 (stereo not shown) :: 0.1 to 1 µM
CCC1(c2cccc(N3CCCCCC3)c2)C2=C(CC(C)(C)CC2=O)Nc2n[nH]cc21 (stereo not shown) :: 0.1 to 1 µM
CC[C@@]1(c2cccc(-c3ccncc3C(F)(F)F)c2)C2=C(CC(C)(C)NC2=O)Nc2n[nH]cc21 :: > 5 µM
CC(=O)N1CC2(C1)C1=C(CC(C)(C)CC1=O)Nc1n[nH]cc12 :: > 5 µM
CC[C@@]1(c2cccc(-c3ccnc(C)c3)c2)C2=C(CC(C)(C)C2=O)Nc2n[nH]cc21 :: 0.1 to 1 µM

Kindly note the recorded IC50 for CCC1(c2cccc(N(C)C(=O)CCc3ccccc3)c2)C2=C(CC(C)(C)CC2=O)Nc2n[nH]cc21 (stereo not shown) , which is 0.1 to 1 µM

Kindly note the recorded IC50 for CC[C@]1(c2cccc(-c3ccncc3F)c2)C2=C(CC(C)(C)NC2=O)Nc2n[nH]c(F)c21 , which is > 5 µM
